# Tested on: UACC-257 melanoma
# TEST_PROTOCOL: NCI-60 one-dose screen, 48 h (100 = growth as untreated, 0 = no growth, -100 = all killed)
# ASSAY_CONDITIONS: 10 µM unless noted
# Method: Cells are grown in 96 well plates and exposed to the test compound for 48 hours. Compounds are tested at a single concentration, which is 10^-5 M for most compounds. The reported endpoint is percent growth (GI% or GIPRCNT), where numbers from 0 - 100% represent growth inhibition, and numbers from -100% - 0 represent cell death. For example, a value of 40 represents 60% growth inhibition. A value of 0 means no net growth occurred over the course of the experiment. […]
This is part of a sample that, as a whole, favours compounds with a hit. Of some 83,000 tested, about 20% had one in any assay.
Please respond with reported growth for every item in the list.
Value expressed in %; do not type the unit.

Check the records and state growth for `Clc1nc(Nc2ccccc2)nc(Nc2ccccc2)n1`
130

Input `O=C(O)CCCCCCCCCCCCCCC(=O)O` , output reported growth.
95.6

For `O=C(CN1CCOCC1)Nc1ccc2ncnc(Nc3ccc(OCc4cccc(F)c4)c(Cl)c3)c2c1` , write its growth.
87.9

Please supply the value of reported growth for the item `COC(=O)Nc1ccc(NC(=O)OC)cc1`
66.3

Retrieve growth measured for `COc1ccc(C2=C(c3ccccc3)c3ccc(OC(C)=O)cc3OC2(C)C)cc1` and print it.
145

# return recorded growth for entry `O=C(Nc1ccc(Cl)cc1)Nc1ccc(Cl)c(Cl)c1`
43

Give me measured growth, please, for this compound: `O=S(=O)(NCCCNc1nccc(-c2c(-c3cccc(O)c3)nc3occn23)n1)c1ccc(Br)cc1`
18.4

Specify reported growth for the compound shown: `COc1ccc(-c2nc(N/N=C/c3cccc(O)c3)nc(N3CCOCC3)c2C#N)cc1`
57.9

Give the reported value of growth for this record: `COc1ccc(-c2cnnc3c(-c4cccc(C(F)(F)F)c4)cnn23)cc1`
44

Indicate the recorded growth value for this compound: `Cc1nccc2c3ccc(OCc4cn(-c5ccc(Cl)cc5)nn4)cc3n(CCCc3ccccc3)c12`
-34.6

Supply measured growth of `CCOC(=O)c1c(SC)nn(-c2cc(=O)[nH]c3ccc(Br)cc23)c1N` in your reply.
112

Please indicate growth recorded for CN(C)C(C(N)=O)c1ccc(Cl)cc1 (configuration not stated)
95.5

Give the reported growth for this compound. `COc1cc(COC(=O)CCCCC[P+](c2ccccc2)(c2ccccc2)c2ccccc2)c(OC)c2c1OCO2`
15.6

Answer with the recorded growth for the compound listed here: `O=C(O)C(/C=C/c1ccco1)=N\Nc1nc(-c2ccc(Cl)cc2)cs1`
72.2

Look up growth of Fc1ccc(C2CC(c3cccc(Nc4ccncc4)c3)=NN2c2ccc(Cl)cc2)cc1 (configuration not stated) and report it.
80.8

Give me measured growth, please, for this compound: `Cc1nn(-c2ccccc2)c(N2CCOCC2)c1/C=N/N=c1\sc2ccccc2n1C`
87.8

Give a short answer stating reported growth for `CCCCN(CCCC)CCc1c(C)cc(C)c(CCN(CCCC)CCCC)c1O` .
7.47

Specify reported growth for the compound shown: CCN1C(=O)N(CC)C2C1NN=c1s/c(=C3\C(=O)Nc4ccccc43)c(=O)n12 (configuration not stated)
80.4

Look up and state reported growth for `CN1CCN(C(=O)OCc2nc3c(N4CCOCC4)nc(-c4ccccc4)nc3n2C)CC1`
-49.5

Identify growth associated with the compound C/C(=C(/c1ccccc1)c1ccc(OCC(O)CNCCN2CCOCC2)cc1)c1ccccc1 (configuration not stated)
-27.5

Report growth for `O=C(Nc1cccc(Cl)c1)Oc1c(Br)c(Br)c(Br)c(Br)c1Br`
69.4

Give the measured growth for `Cc1ccccc1-c1cc(Cc2ccc(F)cc2)c(=O)[nH]n1`
137

====

# Test system: MDA-MB-435 melanoma
# TEST_PROTOCOL: NCI-60 one-dose screen, 48 h
# ASSAY_CONDITIONS: 10 µM unless noted
The panel holds about 83,000 compounds, 20% with a hit somewhere; the sample as a whole holds those more often. Calls of active or inactive are those of the source. Rule for the calls: active = growth percent below 10; inactive = the rest.
Can you answer with just one of these options? active, inactive

What was the test verdict on Clc1cc(Cl)cc(N2N=C(c3cccc(Nc4ccncc4)c3)CC2c2ccc(Br)cc2)c1 (stereo not given) ?
active

// return assay outcome for CCCC1C(C(=O)OCC)=C(N)Oc2cc(O)ccc21 (stereo not given)
inactive

Record lookup: outcome of this test for `N#Cc1ccc(-c2ccc3c(c2)NC(=O)/C3=C\c2ccc[nH]2)cc1` ?
inactive

Field: outcome | Entry: CC(C)NC(=O)N1C(=O)CCC1NNC(=O)c1ccc([N+](=O)[O-])cc1 (stereo not given)
inactive

// return assay outcome for `C=C1C(=O)O[C@H]2[C@H]1CC/C(COC(=O)CCCCCC(=O)OC/C1=C/CC[C@@]3(C)O[C@H]3[C@H]3OC(=O)C(=C)[C@@H]3CC1)=C\CC[C@@]1(C)O[C@@H]21`
inactive

Recorded test call requested for COc1ccc(C(O)c2cc3c(N)c(C(=O)Nc4ccc(Cl)cc4)sc3nc2C)cc1 (stereo not given)
active

What was the test verdict on CCOC(=O)C1CC(=O)c2cc(OC)c(OC)cc2C1 (stereo not given) ?
inactive

Give the logged outcome of this assay for the following compound: CC(C)Cc1ccc(C(C)C(=O)NCc2ccc(Cn3c(=O)sn(-c4ccc(Cl)cc4)c3=O)cc2)cc1 (stereo not given)
inactive

Given `CCc1c(Nc2ccc(C)cc2)nc(N)[nH]c1=O` , state the outcome it received in this test.
inactive

Given `CC(=O)c1c[nH]c2ccc(-c3ccnc(Nc4ccc(NC(=O)C5CCCC5)c(CN5CCOCC5)c4)n3)cc12` , state the outcome it received in this test.
active

Fill in: this test's call for `O=C(OCc1nc2nc(Cl)nc(N3CCOCC3)c2[nH]1)n1ccnc1` is ___
active

Hi, sorry to bother you, what did the test record for `ClCC1(Cn2cnc3c(Cl)nc(Cl)nc32)COC1` ?
inactive

// outcome(item) with item = CCn1cc(C2NC(=O)c3ccccc3N2)c2cccc(C)c21 (stereo not given)
active

For this compound, state the assay outcome: `CC(=O)Nc1ccc(C(=O)Nc2cc(-c3ccccc3)ccc2N)cc1`
inactive

Could you please tell me the result logged for Clc1ccc(C2CC(c3cccc(Nc4ccncc4)c3)=NN2c2ccc(Cl)cc2)cc1 (stereo not given) in this assay?
active

Which result was noted for this compound in the test: `COc1ccc(/C(C)=N/NC(=O)CSc2nc3ccccc3c(=O)n2Cc2ccc(S(N)(=O)=O)cc2)c(OC)c1`
inactive

Recorded test outcome, item CC(=O)N1c2ccccc2NC2=C(C(=O)N(Cc3ccccc3)C2(C)C)C1c1ccco1 (stereo not given)
active

Status in this test for `O=C(N=Nc1c(O)[nH]c2ccc(F)cc12)c1cc2ccccc2[nH]1` ?
inactive

Per the records of this test, what outcome belongs to `COc1cc(-c2cc(=O)oc3cc(O)ccc23)cc(OC)c1OC` ?
inactive

Each compound tested received a call. Report the one for `Cn1c(COC(=O)NCCc2ccccn2)nc2c(N3CCOCC3)nc(Cl)nc21` .
active

====

# System: BT-549 breast
# TEST_PROTOCOL: NCI-60 one-dose screen, 48 h (100 = growth as untreated, 0 = no growth, -100 = all killed)
# ASSAY_CONDITIONS: 10 µM unless noted
About 83,000 compounds went through this panel and 20% of them were active in at least one assay; those are over-represented in the sample as a whole.
Record form. Attribute: growth. Fill in for each entry.
Response body: numeric value in %, unit text excluded.

Give the value of growth reported for the following: `Cc1cc2cc3cc(C)c(N)cc3[n+](C)c2cc1N`
9.11

State, in one line, measured growth of `Cc1cc(C)n(Nc2nc3ccccc3[nH]c2=O)c(=O)c1C#N`
106

Return reported growth. Input molecule: `NC(=O)c1cccc(-c2cc(C(N)=O)ccc2Cl)c1`
57.9

Identify measured growth associated with `COc1ccc(-c2ncc(-c3ccccc3)[nH]2)cc1OC`
240

Read the entry `O=C1c2ccccc2-c2c1c1c(NCCCO)nc3ccccc3c1n2Cc1ccccc1` and write its reported growth.
-37.7

Quick one: give measured growth for `CO[C@@H]1[C@H](N(C)C(=O)c2ccccc2)C[C@@H]2O[C@]1(C)n1c3ccccc3c3c4c(c5c6ccccc6n2c5c31)C(=O)NC4=O`
45

Identify measured growth corresponding to `CCCCCCOc1ccc(C(=N)N(CCCC)CCCC)c2ccccc12`
-94.6

Complete the entry with growth for `COc1cccc(CCC(=O)c2cc3c(N)c(C(=O)Nc4cccc(Cl)c4C)sc3nc2C)c1`
50.6

For the molecule `COc1ccc(/C=C(/c2ccccc2)[N+](=O)[O-])cc1` , give its measured growth value.
-18.7

Return growth (reported value) for this molecule: `Cn1c(=O)c2[nH]c(CCCc3nc4c([nH]3)c(=O)n(C)c(=O)n4C)nc2n(C)c1=O`
121
